Attribution: patent US20200339680A1

Molecular target: T1, human TMEM106B (human, UniProt Q9NUM4 2-274)
T1 construct: full-length, transiently expressed on HEK293 cells, or natively expressed on HeLa, U251 and A549 cells (the cell is named under assay); also the source of the Pepscan peptides; also called huTMEM106B; huTMEM
Assay: FACS A549 10 ug/ml
Would you kindly list MFI for each of these binders?
Numbers only, in MFI.

Task item: So what's the measured MFI for this one? TM-50 (antibody, V domains shown, mouse IgG (hybridoma)) VH: QVQLKESGPVLVAPSQSLSITCTVSGFSLTNYGVHWVRQPPGKGLEWLGVIWAGGNTNYNSALMSRLSISKDNSKSQVFLKMNSLQTDDTAMYYCAKEAKLLRSYAMDYWGQGTLVTVSA VL: DVQMTQTTSSLSASLGDRVTISCRASQDINNYLYWYQQKPDGTVKLLIYYTSMLHSGVPSRFSGSGSGTDYSLTISNLEQEDIATYFCQQGSTLMYTFGGGTKLEIK
Reply: 445

Task item: Fill in the blank: the reported MFI of TM-49 (antibody, V domains shown, mouse IgG (hybridoma)) VH: QVQLQQPGAELVRPGSSVKLSCKASGYTFTRFWMHWVKQRPIQGLEWIGNIDPSDSQTHYNQKFKDKATLTVDKSSSTAYMQLSSLTSEDSAVYYCARLITVDYAMDYWGQGTSVTVSS VL: QIVLTQSPAIMSASPGEKVTISCSASSSVSYMYWYQQKPGSSPKPWIHRTSNLASGVPVRFSGSGSGTSYSLTISSMEAEDAATYYCQQYHSYPPTFGAGTKLELK is ____.
Reply: 613

Task item: I am curious: what MFI value has been reported for TM-35 (antibody, V domains shown) VH: QVQLQQSGPELVRPGTSVKISCKAPGYTFTRHWMQWVRQRPGQGLEWIGEILPGSNNIYYNEKVKGKATLTVDTSSSTSYMQLSSLTSEDSAVYFCARSLYDYDGVFAYWGQGTLVTVSA VL: DVLMTQIPLSLPVSLGDQASISCRSSQSIVHRNGNTYLEWYLQKPGQSPKLLIYKVSNRFSGVPDRFSGSGSGTDFTLKISRVEAEDLGVYYCFQGSHVPYTFGGGTKLEIK ?
Reply: 4200

Go through the list and state MFI for each entry.
1. TM-33 (antibody, V domains shown, mouse IgG (hybridoma)) VH: EFQLQQSGPELVKPGASVKISCKASGYSFTDYNMNWVKQSNGKSLEWIGVINPNYGTTSYNQKFKGKATLTVDQSSSTAYMQLNSLTSEDSAVYYCASSYWGQGTLVTVSA VL: DIVMTQSQKFMSTTVGDRVSITCKASQNVGTAVAWYQQKPGQSPKLLIYSASNRYTGVPDRFTGSGSGTDFTLTISNMQSEDLADYFCQQYSSYPYTFGGGTKLEIK
2. TM-45 (antibody, V domains shown) VH: QVQLQQSGAELAKPGASVKLSCKASGYTFTNYWMHWVKKRPGQGLEWIGYINPSSGYTKYNQKFKDKATLTADKSSNTAYMQLSSLTYEDSAVYYCTREGGSISDWYFDVWGTGTTVTVSS VL: DIVMTQAAPSLPVTPGESVSISCRSSKSLLHSNGNTYLYWFLQRPGQSPQLLIYRMSNLASGVPDRFSGSGSGTAFTLRISRVEAEDVGVYYCMQHLEYPYTFGGGTKLEIK

Reply:
514
3240
